test_target: human PD-1 stably expressed on Jurkat/IL-2 reporter cells (Jurkat/PD-1 cells) (human, UniProt Q15116 25-288)
Sequence (Q15116 25-288): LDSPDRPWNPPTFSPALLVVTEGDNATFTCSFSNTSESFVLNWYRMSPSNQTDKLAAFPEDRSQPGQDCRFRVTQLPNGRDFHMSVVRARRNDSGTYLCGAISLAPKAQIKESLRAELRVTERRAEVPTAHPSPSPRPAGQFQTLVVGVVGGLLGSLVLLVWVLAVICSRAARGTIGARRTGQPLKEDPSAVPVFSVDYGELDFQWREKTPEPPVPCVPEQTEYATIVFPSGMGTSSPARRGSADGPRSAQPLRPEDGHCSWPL
procedure_text: flow cytometry, Jurkat/PD-1 cells
Entries and their measured MFI at 20 nM conc. follow.
Value and unit, in that order.

Below, 2 binders whose answers are already recorded.
[[record]]
binder = "variant PD-L1 ECD-Fc N45D, K111T, T183A, I188V (Fc fusion, not shown: a dimerising Fc or GST) FTVTVPKDLYVVEYGSNMTIECKFPVEKQLDLAALIVYWEMEDKDIIQFVHGEEDLKVQHSSYRQRARLLKDQLSLGNAALQITDVKLQDAGVYRCMISYGGADYKRITVTVNAPYNKINQRILVVDPVTSEHELTCQAEGYPKAEVIWTSSDHQVLSGKTTTTNSKREEKLFNVTSTLRINATTNEVFYCTFRRLDPEENHTAELVIPELPLAHPPNER"
experimental_value = "109000 MFI"

[[record]]
binder = "variant PD-L1 ECD-Fc N45D, I148V, R195G (Fc fusion, not shown: a dimerising Fc or GST) FTVTVPKDLYVVEYGSNMTIECKFPVEKQLDLAALIVYWEMEDKDIIQFVHGEEDLKVQHSSYRQRARLLKDQLSLGNAALQITDVKLQDAGVYRCMISYGGADYKRITVKVNAPYNKINQRILVVDPVTSEHELTCQAEGYPKAEVVWTSSDHQVLSGKTTTTNSKREEKLFNVTSTLRINTTTNEIFYCTFRGLDPEENHTAELVIPELPLAHPPNER"
experimental_value = "109000 MFI"


Here's the next entry for you.
Consider the binder shown here: variant PD-L1 ECD-Fc N45D, V50A, R195T (Fc fusion, not shown: a dimerising Fc or GST) FTVTVPKDLYVVEYGSNMTIECKFPVEKQLDLAALIVYWEMEDKDIIQFAHGEEDLKVQHSSYRQRARLLKDQLSLGNAALQITDVKLQDAGVYRCMISYGGADYKRITVKVNAPYNKINQRILVVDPVTSEHELTCQAEGYPKAEVIWTSSDHQVLSGKTTTTNSKREEKLFNVTSTLRINTTTNEIFYCTFRTLDPEENHTAELVIPELPLAHPPNER What is its recorded MFI at 20 nM conc.?
142000 MFI
